Ratio values for the compounds below.
- System: Striatum
- ASSAY_INFO: Ratio of biodistribution in striatum at 2 mins post dose to biodistribution in striatum post 30 mins in naive Wistar rat at 1 to 3 MBq, iv using [18F] labeled compound
- Format: ADME, organism-based
- STATED_CONDITIONS: in vivo
Simply state the number, no unit and no words.

Examples from the recorded data:
{"columns": ["SMILES_STR", "Ratio"],
 "data": [
  ["COc1ncccc1CN(C(=O)CF)c1cc(F)ccc1Oc1ccccc1", 4.39],
  ["O=C(CF)N(Cc1cccc2c1OCCO2)c1ccccc1Oc1ccccc1", 3.88],
  ["O=C(CF)N(Cc1cccc2c1OCO2)c1ccccc1Oc1ccccc1", 4.77],
  ["COc1ccccc1CN(C(=O)CF)c1ccccc1OC1CCCC1", 5.46],
  ["COc1ccc(OC)c(CN(C(=O)CF)c2cc(F)ccc2Oc2ccccc2)c1", 1.71],
  ["COc1ncccc1CN(C(=O)CF)c1ccccc1Oc1ccccc1", 3.92],
  ["CC1(C)Cc2cccc(CN(C(=O)CF)c3ccccc3Oc3ccccc3)c2O1", 3.8],
  ["COc1ccc(OC)c(CN(C(=O)CF)c2ccccc2OC2CCCC2)c1", 5.56],
  ["COc1ccc(OC)c(CN(C(=O)CF)c2cccc3cc(C)oc23)c1", 6.3],
  ["COc1ccc(OC)c(CN(C(=O)CF)c2ccccc2Sc2ccccc2)c1", 6.22]
]}

Q) May I ask what Ratio has been recorded for O=C(CF)N(Cc1cccc2c1OCC2)c1ccccc1Oc1ccccc1 ?
A) 2.52

Q) May I ask what Ratio has been recorded for COc1ccccc1CN(C(=O)CF)c1cccnc1Oc1ccccc1 ?
A) 4.82

Q) May I ask what Ratio has been recorded for COc1ccc(OCCF)c(CN(C(C)=O)c2cccnc2Oc2ccccc2)c1 ?
A) 4.4

Q) May I ask what Ratio has been recorded for CC(=O)N(Cc1ccccc1OCCF)c1cccnc1Oc1ccccc1 ?
A) 2.85
